Target: UniProtKB P45974
Sequence (P45974 whole entry): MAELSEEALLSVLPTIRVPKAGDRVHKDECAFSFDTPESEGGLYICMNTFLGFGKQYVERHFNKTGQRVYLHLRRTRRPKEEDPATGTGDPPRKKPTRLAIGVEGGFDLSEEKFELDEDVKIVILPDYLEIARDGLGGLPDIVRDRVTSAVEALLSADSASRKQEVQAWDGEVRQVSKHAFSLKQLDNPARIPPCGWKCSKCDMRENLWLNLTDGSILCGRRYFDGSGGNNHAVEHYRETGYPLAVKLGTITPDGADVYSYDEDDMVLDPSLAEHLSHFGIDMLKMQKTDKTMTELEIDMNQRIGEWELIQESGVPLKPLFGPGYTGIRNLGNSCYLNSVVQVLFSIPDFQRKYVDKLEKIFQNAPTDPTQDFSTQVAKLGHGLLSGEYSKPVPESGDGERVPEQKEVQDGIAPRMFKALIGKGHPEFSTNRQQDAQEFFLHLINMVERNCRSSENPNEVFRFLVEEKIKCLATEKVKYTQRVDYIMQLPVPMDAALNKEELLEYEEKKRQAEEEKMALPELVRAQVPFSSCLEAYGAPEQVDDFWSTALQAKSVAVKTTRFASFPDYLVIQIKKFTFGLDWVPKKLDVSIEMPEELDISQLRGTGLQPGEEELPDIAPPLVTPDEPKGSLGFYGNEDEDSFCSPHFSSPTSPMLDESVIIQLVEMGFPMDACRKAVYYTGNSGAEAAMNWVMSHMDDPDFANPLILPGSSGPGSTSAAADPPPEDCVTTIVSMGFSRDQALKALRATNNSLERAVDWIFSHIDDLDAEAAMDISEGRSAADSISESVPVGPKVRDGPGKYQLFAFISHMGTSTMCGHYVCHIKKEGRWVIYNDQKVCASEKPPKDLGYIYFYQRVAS
Assay: Inhibition of USP5 (unknown origin)
property measured: pEC50
Lab note — pEC50 values are minus log10 of concentrations in M.

Please report the recorded pEC50 for N#CSc1cc(SC#N)c(N)nc1N .
5.07

====

Molecular target: Ubiquitin carboxyl-terminal hydrolase 4 (Homo sapiens, UniProt Q13107)
Sequence (Q13107 whole entry): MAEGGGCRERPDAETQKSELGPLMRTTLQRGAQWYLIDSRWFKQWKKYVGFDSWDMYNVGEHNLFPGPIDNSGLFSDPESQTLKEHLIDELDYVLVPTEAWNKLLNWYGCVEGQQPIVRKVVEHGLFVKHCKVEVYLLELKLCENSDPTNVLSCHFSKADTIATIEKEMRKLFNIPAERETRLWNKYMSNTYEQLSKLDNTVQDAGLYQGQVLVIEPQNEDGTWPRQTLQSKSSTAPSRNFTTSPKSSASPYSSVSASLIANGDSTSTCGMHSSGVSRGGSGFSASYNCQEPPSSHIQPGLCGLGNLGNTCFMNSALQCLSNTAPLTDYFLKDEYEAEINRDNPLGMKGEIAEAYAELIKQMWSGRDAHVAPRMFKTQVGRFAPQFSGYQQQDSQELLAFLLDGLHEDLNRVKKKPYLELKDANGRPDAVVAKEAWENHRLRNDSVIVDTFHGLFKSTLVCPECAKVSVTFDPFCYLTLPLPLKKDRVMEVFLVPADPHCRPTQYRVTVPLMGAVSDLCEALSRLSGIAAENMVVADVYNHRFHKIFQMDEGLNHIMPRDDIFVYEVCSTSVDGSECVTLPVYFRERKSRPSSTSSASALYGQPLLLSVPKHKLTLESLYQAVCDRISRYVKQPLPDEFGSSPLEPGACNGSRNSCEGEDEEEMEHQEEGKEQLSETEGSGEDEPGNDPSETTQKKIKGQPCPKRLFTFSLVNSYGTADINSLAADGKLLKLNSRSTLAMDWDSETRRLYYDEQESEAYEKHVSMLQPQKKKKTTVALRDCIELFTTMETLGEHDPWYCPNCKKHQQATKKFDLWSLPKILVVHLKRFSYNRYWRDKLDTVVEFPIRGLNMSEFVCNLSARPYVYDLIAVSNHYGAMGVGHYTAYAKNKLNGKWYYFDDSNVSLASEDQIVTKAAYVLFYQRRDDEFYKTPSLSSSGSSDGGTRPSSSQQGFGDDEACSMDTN
Test: Inhibition of USP4 (unknown origin)
property measured: pEC50
Scale: negative log10 of molar concentration, which is what pEC50 denotes.

I have this compound here, N#CSc1cc(SC#N)c(N)nc1N , and I need its recorded pEC50.
5.41

Data origin: ChEMBL document CHEMBL5226343
